Molecular target: T1, Human CXCR2 (human, UniProt P25025 1-360)
T1 sequence: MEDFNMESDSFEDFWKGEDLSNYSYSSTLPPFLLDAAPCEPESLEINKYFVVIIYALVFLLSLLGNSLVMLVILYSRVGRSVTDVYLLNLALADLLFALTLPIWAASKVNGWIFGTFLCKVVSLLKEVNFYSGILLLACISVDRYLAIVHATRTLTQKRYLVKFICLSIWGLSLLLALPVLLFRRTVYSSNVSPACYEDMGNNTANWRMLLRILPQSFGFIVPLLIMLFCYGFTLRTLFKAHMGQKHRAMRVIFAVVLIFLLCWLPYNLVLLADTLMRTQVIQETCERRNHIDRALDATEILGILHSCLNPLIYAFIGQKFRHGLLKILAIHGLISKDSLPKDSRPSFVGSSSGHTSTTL
Test: cell-based or functional assay
quantity_kind: [35S]GTPγS % inhibition of max, GRO-α (%)
Respond numerically; units are % and should not be typed.

Sure, the documented [35S]GTPγS % inhibition of max, GRO-α for CXCR20033 (bispecific antibody, not shown: small tags and cut ends) EVQLVESGGGLVQPGGSLRLSCVASGRIFSSNAMGWFRQAPGKEREFVAAITWRSGGSAYYADSAKGRFTISRDNAKNTVYLQMNSLKPEDTAVYYCAAGGSSWLSFPPDYWGQGTQVTVSSGGGGSGGGGSGGGGSGGGGSGGGGSGGGGSGGGGSEVQLVESGGELVQPGGSLRLSCAASGSILTINAMGWYRQAPGKQRELVVRRTRGGSTTYQDSVKGRFTISADIAKKTMYLQMNSLKPEDTAVYYCMLDDRGGVYWGQGTQVTVSS is 100
